- experimentalTarget: ABCG5/G8 (Homo sapiens, UniProt Q9H221+Q9H222)
- Sequence (Q9H222 1-651): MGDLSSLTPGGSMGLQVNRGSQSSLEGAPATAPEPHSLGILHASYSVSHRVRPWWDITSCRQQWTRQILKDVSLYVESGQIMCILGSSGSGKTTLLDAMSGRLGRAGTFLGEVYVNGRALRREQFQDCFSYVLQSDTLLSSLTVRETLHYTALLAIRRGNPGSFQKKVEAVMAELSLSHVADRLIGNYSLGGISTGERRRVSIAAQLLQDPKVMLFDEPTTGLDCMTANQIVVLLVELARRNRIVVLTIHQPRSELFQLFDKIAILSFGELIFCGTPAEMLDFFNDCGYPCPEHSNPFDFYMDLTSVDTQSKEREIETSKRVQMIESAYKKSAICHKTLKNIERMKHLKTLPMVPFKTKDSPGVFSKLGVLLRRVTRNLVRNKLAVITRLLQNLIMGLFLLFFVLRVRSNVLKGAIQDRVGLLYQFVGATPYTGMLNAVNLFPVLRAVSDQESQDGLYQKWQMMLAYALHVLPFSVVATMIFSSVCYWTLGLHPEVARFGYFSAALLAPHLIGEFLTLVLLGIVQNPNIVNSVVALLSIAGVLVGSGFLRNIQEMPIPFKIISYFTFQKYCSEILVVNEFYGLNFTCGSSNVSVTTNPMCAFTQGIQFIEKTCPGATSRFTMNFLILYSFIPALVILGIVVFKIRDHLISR
- Sequence (Q9H221 1-673): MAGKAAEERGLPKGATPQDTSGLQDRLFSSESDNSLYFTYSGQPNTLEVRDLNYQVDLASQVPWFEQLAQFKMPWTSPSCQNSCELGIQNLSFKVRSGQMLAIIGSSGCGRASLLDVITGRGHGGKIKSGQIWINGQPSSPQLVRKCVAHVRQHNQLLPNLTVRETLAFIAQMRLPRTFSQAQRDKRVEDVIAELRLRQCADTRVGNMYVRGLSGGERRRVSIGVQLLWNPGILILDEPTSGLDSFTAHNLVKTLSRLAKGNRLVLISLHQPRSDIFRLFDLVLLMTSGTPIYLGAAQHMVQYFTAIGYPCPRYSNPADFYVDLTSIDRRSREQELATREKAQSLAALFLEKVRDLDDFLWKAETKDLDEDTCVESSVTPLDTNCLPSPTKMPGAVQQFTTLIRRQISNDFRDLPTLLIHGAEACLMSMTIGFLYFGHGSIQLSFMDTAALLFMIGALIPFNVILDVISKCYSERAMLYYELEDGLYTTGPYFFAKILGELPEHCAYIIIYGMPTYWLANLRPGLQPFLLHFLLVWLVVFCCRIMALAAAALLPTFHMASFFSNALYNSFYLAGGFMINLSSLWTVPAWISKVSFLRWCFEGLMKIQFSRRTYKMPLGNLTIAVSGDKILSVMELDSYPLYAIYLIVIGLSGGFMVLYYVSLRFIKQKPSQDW
- assayExplanation: [3H]cholesterol binding, Ni-NTA bead pull-down, scintillation counting
pKd: −log10 of the molar value.

compound | pKd
CC(C)CCC[C@@H](C)[C@H]1CC[C@H]2[C@@H]3CC=C4C[C@@H](O)CC[C@]4(C)[C@H]3CC[C@]12C [cholesterol] | 5.84

Taken from paper doi:10.1101/2022.05.18.492512v2.
